These measurements were taken from the supplement of paper PMC10065799.

Below is a list of entries, each paired with its recorded phosphorylation enrichment value.
Biological target: Fes (UniProt P07332)
Sequence (P07332 whole entry, looked up): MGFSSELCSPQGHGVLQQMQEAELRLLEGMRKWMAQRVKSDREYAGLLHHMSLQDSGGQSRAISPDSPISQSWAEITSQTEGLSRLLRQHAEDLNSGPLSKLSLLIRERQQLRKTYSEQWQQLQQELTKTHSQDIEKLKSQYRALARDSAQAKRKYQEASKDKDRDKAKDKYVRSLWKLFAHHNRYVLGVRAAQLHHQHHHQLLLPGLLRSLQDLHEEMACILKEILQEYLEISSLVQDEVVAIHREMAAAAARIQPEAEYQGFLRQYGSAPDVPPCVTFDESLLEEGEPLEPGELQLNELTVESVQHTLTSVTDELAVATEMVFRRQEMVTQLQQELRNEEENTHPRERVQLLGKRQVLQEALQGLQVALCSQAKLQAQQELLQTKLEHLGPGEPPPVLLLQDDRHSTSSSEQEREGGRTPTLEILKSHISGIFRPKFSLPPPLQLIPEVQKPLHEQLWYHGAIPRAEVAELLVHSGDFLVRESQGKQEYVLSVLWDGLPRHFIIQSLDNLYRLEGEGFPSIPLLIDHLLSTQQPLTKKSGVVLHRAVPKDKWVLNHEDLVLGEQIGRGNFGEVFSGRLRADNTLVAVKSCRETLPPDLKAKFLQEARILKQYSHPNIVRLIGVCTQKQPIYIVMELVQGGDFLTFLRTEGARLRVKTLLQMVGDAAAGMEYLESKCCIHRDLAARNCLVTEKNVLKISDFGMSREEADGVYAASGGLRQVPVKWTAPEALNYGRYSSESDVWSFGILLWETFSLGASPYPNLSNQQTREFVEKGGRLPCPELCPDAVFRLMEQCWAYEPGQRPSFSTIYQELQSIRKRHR
Test: phosphorylation enrichment, bacterial display (enrichment ratio); higher = better substrate or ligand; peptides without Tyr show the background;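 further: 11-residue human phosphosite peptides and single-mutation variants displayed on the E. coli surface, counted by deep sequencing, each peptide's frequency after selection divided by its frequency in the unselected input library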;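 further: frequency after pTyr selection over input frequency; kinase dosed for 20-30% of maximal phosphorylation in three min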
measured-metric: phosphorylation enrichment

{"columns": ["input-sequence", "measured-metric", "reported"],
 "data": [
  ["PQGVGYPPQQQ [EP300_Y2219]", "phosphorylation enrichment", 1.17],
  ["FFIMMYTGSSV [DNAJC13_Y1131_N1135S]", "phosphorylation enrichment", 1.07],
  ["NLMPAYFKCIQ [CYP21A2_Y190_YF]", "phosphorylation enrichment", 1.6],
  ["VTSLKYSTSPY [BRIP1_Y916]", "phosphorylation enrichment", 0.655],
  ["KFVVVYFRETD [IL17RB_Y447_I451T_YF]", "phosphorylation enrichment", 1.23],
  ["TSYSGYRYHRH [NKAPL_Y94]", "phosphorylation enrichment", 0.501],
  ["LVSCAYQVARG [FGFR1_Y605]", "phosphorylation enrichment", 0.89]
]}

----------
Biological target: FGFR1 (UniProt P11362)
Sequence (P11362 whole entry, looked up): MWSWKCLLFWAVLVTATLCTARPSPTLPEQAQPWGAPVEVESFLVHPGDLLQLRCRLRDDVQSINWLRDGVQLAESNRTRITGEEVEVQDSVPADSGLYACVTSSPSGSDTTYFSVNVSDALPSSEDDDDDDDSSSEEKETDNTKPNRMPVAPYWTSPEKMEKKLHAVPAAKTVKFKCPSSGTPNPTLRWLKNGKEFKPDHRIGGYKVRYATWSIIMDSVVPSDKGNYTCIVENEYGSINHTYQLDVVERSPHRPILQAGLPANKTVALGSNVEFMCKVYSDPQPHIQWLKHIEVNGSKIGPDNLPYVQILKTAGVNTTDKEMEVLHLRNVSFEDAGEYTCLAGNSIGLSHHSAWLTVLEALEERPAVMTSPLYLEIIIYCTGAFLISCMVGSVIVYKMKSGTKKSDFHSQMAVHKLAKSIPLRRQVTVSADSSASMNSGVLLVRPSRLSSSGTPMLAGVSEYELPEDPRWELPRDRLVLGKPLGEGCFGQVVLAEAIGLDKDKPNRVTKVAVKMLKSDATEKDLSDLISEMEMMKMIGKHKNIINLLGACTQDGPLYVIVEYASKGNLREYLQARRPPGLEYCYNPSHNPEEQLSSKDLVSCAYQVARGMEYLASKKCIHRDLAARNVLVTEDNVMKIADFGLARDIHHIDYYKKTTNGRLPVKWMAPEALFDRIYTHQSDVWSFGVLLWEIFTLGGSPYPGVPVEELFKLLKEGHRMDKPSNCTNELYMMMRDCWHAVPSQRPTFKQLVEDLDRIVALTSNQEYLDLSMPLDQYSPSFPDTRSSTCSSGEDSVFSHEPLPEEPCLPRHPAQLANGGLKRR
Experiment: phosphorylation enrichment, bacterial display (enrichment ratio); higher = better substrate or ligand; peptides without Tyr show the background

{"columns": ["input-sequence", "phosphorylation enrichment"],
 "data": [
  ["HHIDFYKETTN [FGFR1_Y654_K656E_YF]", 1.02],
  ["NTGLEYIKFTW [HRH1_Y386_D385E]", 0.76],
  ["RRIHSYRSHLW [VHL_Y112_G114S]", 1.25],
  ["NIKKEYAKMVQ [PMS2_Y181]", 0.358],
  ["FFSSEYHCVGG [CTSC_Y345_Y347C_YF]", 7.57],
  ["VLDSHYPEDEV [C1QBP_Y188_C186S]", 0.52],
  ["LLKKMYLMLDN [STAT1_Y203]", 0.395]
]}

----------
Biological target: Fyn (UniProt P06241)
Sequence (P06241 whole entry, looked up): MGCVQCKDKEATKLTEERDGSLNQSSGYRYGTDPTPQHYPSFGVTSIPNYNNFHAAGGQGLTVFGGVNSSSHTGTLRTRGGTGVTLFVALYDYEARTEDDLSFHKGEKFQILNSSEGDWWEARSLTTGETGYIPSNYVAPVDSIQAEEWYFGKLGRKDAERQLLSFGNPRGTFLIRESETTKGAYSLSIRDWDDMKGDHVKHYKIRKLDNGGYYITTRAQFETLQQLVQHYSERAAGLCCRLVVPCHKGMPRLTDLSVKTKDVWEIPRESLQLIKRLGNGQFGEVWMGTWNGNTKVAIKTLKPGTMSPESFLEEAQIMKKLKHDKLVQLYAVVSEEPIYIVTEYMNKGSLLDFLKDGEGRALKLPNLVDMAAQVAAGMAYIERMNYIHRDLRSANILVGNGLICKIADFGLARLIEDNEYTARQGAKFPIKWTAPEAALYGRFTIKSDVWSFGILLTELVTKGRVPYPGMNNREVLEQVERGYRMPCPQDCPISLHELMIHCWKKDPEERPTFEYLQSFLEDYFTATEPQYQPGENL
Test: phosphorylation enrichment, bacterial display (enrichment ratio); higher = better substrate or ligand; peptides without Tyr show the background
Please use Met whenever phosphorylation enrichment is not below 0.4, and Not met whenever it is.

{"columns": ["input-sequence", "assigned-label"],
 "data": [
  ["ADYPDCKYRPR [SOX11_Y116_Y116C]", "Met"],
  ["VHNLDYYKETT [FGFR3_Y647_K650E]", "Met"],
  ["TLPAFYMGNFS [GLB1_Y552]", "Met"],
  ["FAASSYSFSDL [EMD_Y59_S54F]", "Met"],
  ["HESEIYGKVCF [CSRP3_Y57_C58G_YF]", "Met"],
  ["EQMASYFGHSV [ITGA2B_Y319]", "Met"],
  ["KPPFSYNALIM [FOXG1_Y186]", "Met"],
  ["LLKKMYLMLDN [STAT1_Y203]", "Not met"],
  ["PQGVGYPPQQQ [EP300_Y2219]", "Met"],
  ["YEKFLYFLPAS [DYNC2H1_Y346_H341Y]", "Met"],
  ["SRVTQYERDFE [SNX1_Y463]", "Met"],
  ["MGHVNYGAYIN [GLB1_Y485_R482H]", "Met"],
  ["TETGRYEILTE", "Not met"]
]}

----------
Below is a list of entries, each paired with its recorded phosphorylation enrichment value.
System: c-Abl (mouse)
Test: phosphorylation enrichment, bacterial display (enrichment ratio); higher = better substrate or ligand; peptides without Tyr show the background
measured-metric: phosphorylation enrichment

{"columns": ["input-sequence", "measured-metric", "reported"],
 "data": [
  ["CRPPYYHRNCM [HGD_Y334_F329C]", "phosphorylation enrichment", 0.743],
  ["KPLMPYMRYSR [SMARCE1_Y73]", "phosphorylation enrichment", 0.635],
  ["HFVFFYSFLLK [PTEN_Y178_R173H_YF]", "phosphorylation enrichment", 2.85],
  ["ETESPYQELQG [TYROBP_Y91]", "phosphorylation enrichment", 0.83],
  ["DMLTLYVNTAA [SMCHD1_Y403_Q400L]", "phosphorylation enrichment", 0.766],
  ["SQETFYRVSNM [ABCD1_Y181_Q178E_YF]", "phosphorylation enrichment", 0.86],
  ["ARVDTYCRHNF [HLA-DRB1_Y107_A103R_YF]", "phosphorylation enrichment", 0.677],
  ["HPWPRYTTRAP [FNDC1_Y1281_Q1280R]", "phosphorylation enrichment", 0.646],
  ["QEALEYFMKQI [PIK3CA_Y1038_M1043I]", "phosphorylation enrichment", 1.28],
  ["CCKNRYDKDKP [THAP1_Y14_G9C]", "phosphorylation enrichment", 0.381],
  ["RSFPSYYTSHV [NEFL_Y442]", "phosphorylation enrichment", 1.02],
  ["RGDSAYHSQRH [ERBB3_Y1132]", "phosphorylation enrichment", 0.453],
  ["EVVGRYSLHNA [MLH1_Y183_V185L]", "phosphorylation enrichment", 0.371]
]}

----------
Biological target: FGFR1 (UniProt P11362)
Experiment: phosphorylation enrichment, bacterial display (enrichment ratio); higher = better substrate or ligand; peptides without Tyr show the background
Please use MET whenever phosphorylation enrichment is not below 0.5, and NOT MET whenever it is.

{"columns": ["input-sequence", "assigned-label"],
 "data": [
  ["LGSWTYPKTVS [ROS1_Y144_T145P]", "MET"],
  ["MAFDRYVAICS [OR8D4_Y123_C120Y_YF]", "NOT MET"],
  ["SLTRLCVGENA [NLRP3_Y861_Y861C]", "NOT MET"],
  ["DHTVNYVLKCR [PLEKHG4_Y1068_R1064H]", "MET"],
  ["FHKALYTVRSF [PDE6C_Y266_YF]", "NOT MET"],
  ["GHPYAYDWISI [BEST1_Y227_L224P]", "MET"],
  ["RALLNYIASKY [GSTA3_Y74_I71L]", "NOT MET"],
  ["ALTDNYMFLVI [HAGH_Y61_YF]", "MET"],
  ["QNTADYFDLFG [PTPN11_Y62_G60A_YF]", "MET"],
  ["EEETDYTPVWC [UROD_Y30_G25E]", "MET"],
  ["QRTMKYTTATE [MCCC1_Y41_G46E]", "MET"],
  ["RLDRSYSFSFS [PEAR1_Y890_YF]", "MET"],
  ["KDYETYQSFQN [CTNND2_Y1157_P1159S]", "MET"],
  ["VVTFSYKPPGN [RBL2_Y544]", "MET"],
  ["QKINKYLTVPA [SLC9A1_Y683_N682K]", "MET"],
  ["GGTPLYMDRQG [AGXT_Y194]", "NOT MET"],
  ["SPRDTYSDRIG [CTPS1_Y567_S571I]", "NOT MET"],
  ["NFADPYRQLQF [CTNND2_Y503_YF]", "MET"],
  ["DNAFQYMLTDR [MYH7_Y164_YF]", "NOT MET"],
  ["MPPHICAITDT [MYH9_Y151_Y151C]", "MET"],
  ["RSSPVYVGRVV [TGM2_Y219]", "MET"],
  ["YPPTHYIRRMP [SLC4A11_Y820_V824M]", "NOT MET"],
  ["LKVKAYRFSIS [LCT_Y974]", "MET"],
  ["DMLTLYVNTAA [SMCHD1_Y403_Q400L]", "MET"],
  ["KDHRDYKFQPR [SOX9_Y172_P170R_YF]", "NOT MET"],
  ["KTVQDYLKKFF [MMP8_Y36_E38K_YF]", "MET"],
  ["SCTFTYLLGDR [ETHE1_Y38]", "NOT MET"],
  ["RDSQIYAVDYE [MRPS34_Y34_L33I]", "MET"],
  ["FFIMMYTGSNV [DNAJC13_Y1131]", "MET"],
  ["HESEIYGKVCY [CSRP3_Y57_C58G]", "MET"],
  ["TLKDVCDDGKF [RPS6KA3_Y483_Y483C_YF]", "MET"],
  ["SYPREYGSQEG [RBM10_Y48]", "NOT MET"],
  ["IWIFHYAKGQP [MPZ_Y82_S78W]", "NOT MET"],
  ["LMIEEYLTKEP [BAG3_Y457_L462P]", "MET"],
  ["HVPEEYKPKQG [SAXO2_Y37]", "NOT MET"],
  ["NQELIYEGRRL [TBK1_Y354]", "NOT MET"],
  ["FQSKHYACIRQ [TIMP3_Y182_YF]", "NOT MET"],
  ["GLRFGYGVLGG [KRTAP20-2_Y15_YF]", "NOT MET"],
  ["FSTSPYLLEAA [BRIP1_Y921_YF]", "NOT MET"],
  ["SVTYTYSPALN [TP53_Y126_C124Y]", "MET"],
  ["GREAEYSDKHG [EPHB4_Y574]", "NOT MET"],
  ["TDGNGYISFNE [LCP1_Y28]", "MET"],
  ["PPTYRYERGSR [INPPL1_Y663]", "MET"],
  ["FEREQYADRTR [RBM4_Y355_A359T_YF]", "NOT MET"],
  ["RKGIRYLTSGL [PIGA_Y82]", "NOT MET"],
  ["AKNKDYMSIIR [GNE_Y197]", "NOT MET"],
  ["CCKNRYDKDKP [THAP1_Y14_G9C]", "NOT MET"],
  ["ADRTRYSAFGG [RBM4_Y361_A359T]", "NOT MET"],
  ["CSHKFYGKQCC [ADAMTS16_Y1211]", "NOT MET"]
]}
